# TARGET OR SYSTEM: UniProt Q13546
# Sequence (Q13546 1-375 limits assumed): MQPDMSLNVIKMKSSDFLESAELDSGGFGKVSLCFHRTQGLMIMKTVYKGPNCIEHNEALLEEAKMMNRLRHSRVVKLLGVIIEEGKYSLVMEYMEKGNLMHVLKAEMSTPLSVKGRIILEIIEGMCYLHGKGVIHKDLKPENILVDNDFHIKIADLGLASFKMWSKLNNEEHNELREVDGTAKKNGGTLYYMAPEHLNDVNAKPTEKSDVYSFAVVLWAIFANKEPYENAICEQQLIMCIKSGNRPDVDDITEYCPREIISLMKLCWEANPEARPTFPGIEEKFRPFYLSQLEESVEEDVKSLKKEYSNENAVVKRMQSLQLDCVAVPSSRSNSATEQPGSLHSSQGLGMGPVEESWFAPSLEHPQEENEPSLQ
# IC50 annotations

Worked set:
| COMPOUND | IC50 |
| --- | --- |
| O=C(Nc1cccc(C#Cc2cnc3cccnn23)c1)N1N=CC[C@H]1c1cccc(F)c1 [Example 29, 2,2,2-trifluoroacetate] | 0.00583 µM |
| O=C(Nc1cccc(C#Cc2cnc3cccnn23)c1)N1N=CCC1c1cccc(F)c1 (stereo not shown) [Example 28, 2,2,2-trifluoroacetate] | 0.0101 µM |
| O=C(Nc1cccc(C#Cc2cnc3cccnn23)c1)N1N=CCC1c1ccc(Cl)cc1 (stereo not shown) [Example 35, 2,2,2-trifluoroacetate] | 0.0616 µM |

Turning now to a further compound:
Form field: IC50 recorded for COC(=O)Nc1cccn2c(C#Cc3cccc(NC(=O)N4N=CCC4c4ccccc4)c3)cnc12 (stereo not shown) [Example 64] with UniProt Q13546 (enter value)
0.119 µM

Where do the numbers come from? From patent US20210284647A1.
